# tested system: rat brain MAO-A (Rattus norvegicus)
# Sequence (P21396 1-526): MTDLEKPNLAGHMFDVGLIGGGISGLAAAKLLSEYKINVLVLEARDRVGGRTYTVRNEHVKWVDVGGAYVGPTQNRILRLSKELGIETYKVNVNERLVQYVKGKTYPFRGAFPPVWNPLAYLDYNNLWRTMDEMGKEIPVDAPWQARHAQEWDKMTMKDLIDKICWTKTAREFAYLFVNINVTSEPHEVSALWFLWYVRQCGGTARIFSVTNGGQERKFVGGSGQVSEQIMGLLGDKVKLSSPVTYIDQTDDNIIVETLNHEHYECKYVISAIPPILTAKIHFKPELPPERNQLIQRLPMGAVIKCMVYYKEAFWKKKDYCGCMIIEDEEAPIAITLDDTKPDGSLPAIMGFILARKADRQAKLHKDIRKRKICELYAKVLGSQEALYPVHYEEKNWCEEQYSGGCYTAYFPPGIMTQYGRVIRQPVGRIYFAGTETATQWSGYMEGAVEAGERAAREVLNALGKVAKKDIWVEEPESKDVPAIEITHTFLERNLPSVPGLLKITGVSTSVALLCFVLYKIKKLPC
readout label: IC50

Reported IC50 of C#CCN [propargylamine] : ~66 µM

// data source = patent US20050191348A1
